The measurements presented in this section are drawn from PubChem BioAssay (NCI).

Measured TGI, listed per entry for reference.
# Test system: SNB-19 CNS
# Assay notes: NCI tumour cell line growth inhibition, 48 h
Property name: TGI (µM)

>>> reading("Cc1c2ccncc2c(C)c2c1[nH]c1ccc(O)c(OCC(F)(F)F)c12")
9.17
>>> reading("COc1ccc(-n2nc(C)c3c(Nc4ccc(NC(=O)Nc5ccc(Cl)c(C(F)(F)F)c5)cc4)ncnc32)cc1")
7.88

###

# Tested on: ACHN renal
# Assay notes: NCI tumour cell line growth inhibition, 48 h
Property name: TGI

>>> reading("COc1ccc(OC)c2sc(N3C(=O)/C(=C/c4cccc([N+](=O)[O-])c4)N=C3c3ccccc3)nc12")
"> 100 µM"
>>> reading("CCOC(=O)C(NC(=O)Nc1ccc(Cl)cc1)(OC)C(F)(F)F (centres undefined)")
"> 100 µM"
>>> reading("CN(C)CCCNC(=O)c1c(O)c2ccccc2n(C)c1=O")
"> 100 µM"
>>> reading("Cc1cc(NS(=O)(=O)c2ccc(NC(NC(=O)C(C(F)(F)F)C(F)(F)F)(C(F)(F)F)C(F)(F)F)cc2)no1")
"> 100 µM"
>>> reading("Nc1ccc(-c2nn3c(COc4ccc(Cl)cc4)nnc3s2)cc1")
"> 100 µM"
>>> reading("C=CC(=O)N1C/C(=C\\c2ccc(Cl)cc2)C(=O)/C(=C/c2ccc(Cl)cc2)C1")
"1.02 µM"
>>> reading("O=C(/C=C/c1cccc(O)c1)c1cccc(-n2cc(-c3ccc4ccccc4c3)[nH]c2=O)c1")
"3.08 µM"
>>> reading("COc1cccc(COc2cc(-n3cnc4ccccc43)sc2C(N)=O)c1")
"> 25 µM"
>>> reading("CC(=O)[CH-]C(=O)c1ccccc1.CC(=O)[CH-]C(=O)c1ccccc1.CC1(C)OCC(C2OC3OC(C)(C)OC3C2[O-])O1.CC[O-].[Ti+4] (centres undefined)")
"35.8 µM"
>>> reading("C=C1C(=O)C23C(O)CC4C5(C)CCCC4(C(O)OC5)C2C(OC(C)=O)CC1C3O (centres undefined)")
"25.3 µM"
>>> reading("CCOC(=O)c1sc2ncnc(N)c2c1C")
"> 100 µM"
>>> reading("CC(C)C1=C(O)C2=C(C(=O)C1=O)C1(C)CCCC(C)(C)C1C(O)C2OC=O (centres undefined)")
"13.2 µM"
>>> reading("CCCCCCC(C)CCCCCCCCCCC(=O)O (centres undefined)")
"> 100 µM"
>>> reading("O=C1c2cccc3cccc(c23)C(=O)N1O")
"> 100 µM"
>>> reading("COC(=O)[C@H](Cc1ccccc1)NC(=O)N(CCC#N)CCN(C(=O)N[C@@H](Cc1ccccc1)C(=O)OC)c1ccccc1")
"33.9 µM"
>>> reading("CC1c2ccccc2N=C2SC(=S)N3CCN=C3N21 (centres undefined)")
"> 100 µM"
>>> reading("CCn1c(-c2nonc2N)nc2ccncc21")
"> 25 µM"
>>> reading("C=C1C(=O)C23C(O)C1CC[C@H]2C12CCCC(C)(COC(C)=O)[C@H]1[C@H](O)[C@]3(O)OC2 (some centres undefined)")
"3.32 µM"
>>> reading("CC#CC(O)(C(=O)OC1CC(C)N(C)C(C)(C)C1)C1CCCC1 (centres undefined)")
"> 100 µM"
>>> reading("O=C1/C(=C/c2cccc([N+](=O)[O-])c2)Sc2scc(-c3ccc([N+](=O)[O-])cc3)[n+]21")
"49.9 µM"
>>> reading("Cc1ccc(-n2nc(C(C)(C)C)cc2NC(=O)NCc2cc(F)ccc2Oc2ccc3c(cnn3CCO)c2)cc1")
"> 56.2 µM"
>>> reading("Cc1cc(C)c(/C=C(\\C(=C/c2c(C)cc(C)cc2C)[N+](=O)[O-])[N+](=O)[O-])c(C)c1")
"> 100 µM"
>>> reading("O=C1c2ccccc2-c2c1c1c(NCCCO)nc3ccccc3c1n2Cc1ccccc1")
"59.4 µM"
>>> reading("c1ccc([P+](CCCCCCCC[P+](c2ccccc2)(c2ccccc2)c2ccccc2)(c2ccccc2)c2ccccc2)cc1")
"> 100 µM"
>>> reading("c1cnn2ncc(-c3ccnc(Nc4ccc5c(c4)OCCO5)n3)c2c1")
"> 25 µM"
>>> reading("CCN(CC)c1ccc(/C=C/C2=[N+](C)c3ccccc3C2(C)C)c(C)c1")
"3.97 µM"
>>> reading("O=C1OC(c2ccccc2)N(C(=O)c2ccccc2)C1Cc1ccc(OCc2ccccc2)cc1 (centres undefined)")
"> 100 µM"
>>> reading("CC(C)N1CN(c2ccccc2)C2(CCN(CCCC(=O)c3ccc(F)cc3)CC2)C1=O")
"42.5 µM"
>>> reading("c1ccc(-c2nc(N3CCCNCC3)c3nc(-c4ccccc4)oc3n2)cc1")
"3.11 µM"
>>> reading("C(=C\\c1ccccc1)/COc1ccccc1C(N1CCOCC1)n1nc2ccccc2n1 (centres undefined)")
"38.8 µM"
>>> reading("O=[N+]([O-])c1cccc2c(N=Nc3ccc4ccccc4c3O)c(O)cc(S(=O)(=O)O)c12")
"> 100 µM"
>>> reading("CC1(C)CC(C#Cc2ccccc2)CC(C)(C)N1O")
"> 100 µM"
>>> reading("CCOC(=O)c1c(SCCN2CCOCC2)n(-c2ccccc2)c(=S)n(-c2ccccc2)c1=O")
"> 100 µM"
>>> reading("Clc1ccc2c(c1)N(c1ncnc3ccc(-c4cnc5[nH]ncc5c4)cc13)CC2")
"> 100 µM"
>>> reading("COc1ccc2[nH]c(-c3ccc(O)cc3)cc(=O)c2c1")
"> 100 µM"
>>> reading("COc1cc(/C=C2\\CCC(C)/C(=C\\c3cc(OC)c(OC)c(OC)c3)C2=O)cc(OC)c1OC (centres undefined)")
"13.1 µM"
>>> reading("COc1cc(C(O)c2ccc3c(c2)OCO3)cc(OC)c1OC (centres undefined)")
"> 100 µM"
>>> reading("c1ccc(C2CC(=NC3CCCCC3)Nc3ccccc3N2)cc1 (centres undefined)")
"> 100 µM"
>>> reading("CCOP(=O)(OCC)OC1CC(n2cc(C)c(=O)n(C)c2=O)OC1CO[Si](C)(C)C(C)(C)C (centres undefined)")
"> 100 µM"
